Test system: carrageenin edema
Assay: Anti-inflammatory activity: inhibition of carrageenin edema of the rat paw, oral
Format: in vivo, wistar male rats
Details: 25 mg/kg orally, rats, 4 hours after carrageenin, read-out: inhibiting rate
Would you please tag the item Yes when its inhibition in vivo at 25 mg/kg is 50% or above, and No when it is below?

Some solved entries appear below for comparison.
Task item: Evaluate C=CCOc1ccc(CC(=O)OC)cc1[N+](=O)[O-] [Methyl 3-nitro-4-allyloxyphenylacetate] : inhibition in vivo at 25 mg/kg at minimum 50%?
Reply: Yes

Task item: Hello, I need to know if "C=CCOc1ccc(CC(=O)O)cc1[N+](=O)[O-]" has measured inhibition in vivo at 25 mg/kg not below 50%. Thanks!
Reply: No

---
Task item: Item COc1cc(C)nc(-n2nc(C)cc2OC)n1 [Mepirizole] with inhibition in vivo at 25 mg/kg of 50% or above?
Reply: No

Task item: Reported inhibition in vivo at 25 mg/kg reaches at least 50% for "C=CCOc1ccc(CC(=O)O)cc1Cl" ?
Reply: No

----------
Catalogue of ED50 values
System: writhing syndrome caused by acetic acid
Assay: Analgesic activity, acetic acid writhing method, oral
Type: in vivo, dd origin male mice
Conditions: Mus musculus, po; orally, mice, 0.6% acetic acid i.p., Litchfield-Wilcoxon method; read-out: ED50 (analgesic activity)
Express the result in mg/kg but write the number alone.

Kindly note the recorded ED50 for C=CCOc1ccc(CC(=O)OC)cc1[N+](=O)[O-] [Methyl 3-nitro-4-allyloxyphenylacetate] , which is 31

Cc1c(N(C)C)c(=O)n(-c2ccccc2)n1C [Aminopyrine] has a reported ED50 of 80

Sure, the documented ED50 for COc1cc(C)nc(-n2nc(C)cc2OC)n1 [Mepirizole] is 117

Lab note: C=CCOc1ccc(CC(=O)O)cc1Cl [3-chloro-4-allyloxyphenylacetic acid] gave ED50 of 56.8

Pending compound:
The value of ED50 measured for the compound C=CCOc1ccc(CC(=O)O)cc1[N+](=O)[O-] [3-Nitro-4-allyloxyphenylacetic acid] turned out to be 96

----------
Test: in vivo
Settings: rat, po, orally, rats, male
MEASURED_ATTRIBUTE: LD50 (mg/kg)
Numeric only. Scale: mg/kg

Reported LD50 ( COc1cc(C)nc(-n2nc(C)cc2OC)n1 [Mepirizole] ) = 1020

Now for another entry.
Record C=CCOc1ccc(CC(=O)O)cc1[N+](=O)[O-] [3-Nitro-4-allyloxyphenylacetic acid] , field LD50: 1480
